# Test system: MDA-MB-231 breast
# protocol: NCI tumour cell line growth inhibition, 48 h; in the data active means GI50 below about 0.43 µM; inactive means the rest
# output must be one of Y (active), N (inactive)

## Task Returns: the outcome recorded for CC1CC[P+](c2ccccc2)(c2ccccc2)c2c1ccc1ccccc21 (stereo unspecified) in this assay.
## Result N

## Task // repeat for COC12C=C/C(=C(/C(=O)OCc3ccccn3)C(=O)CCCCCCCCC3(OC)C=C/C(=C(/C(=O)OCc4ccccn4)C(=O)CCCCCCCC1)O3)O2 and report
## Result N

## Task // repeat for O=C(N/N=C\c1ccc(N(CCCl)CCCl)cc1[N+](=O)[O-])c1cccnc1 and report
## Result N

## Task // repeat for O=C1CC(c2cccc(F)c2)Nc2cc3c(cc21)OCO3 (stereo unspecified) and report
## Result Y

## Task // repeat for COC(=O)C1=C(O)[C@H](C(=O)OC)C2(O)C(C(=O)OC)[C@H](c3ccc(OC(=O)C(C)c4ccc(CC(C)C)cc4)cc3)C[C@@H]1[C@@H]2C(=O)OC (stereo partly specified) and report
## Result N

## Task // repeat for Nc1nc([Se])c2ncn(C3OC(CO)C(O)C3O)c2n1 (stereo unspecified) and report
## Result N

====

# Test system: HT29 colon
# protocol: NCI tumour cell line growth inhibition, 48 h
assay.endpoint: TGI

## Task Return TGI measured with HT29 colon given this compound: COc1ccc(/C(COc2ccc3oc(-c4ccccc4)cc(=O)c3c2)=N\O)cc1
## Result > 50 µM

## Task // repeat for Cc1n[nH]c(=O)n1/N=C\c1ccccc1 and report
## Result > 100 µM

## Task // repeat for NC(CSSCC(N)=NCC12CC3CC(CC(C3)C1)C2)=NCC12CC3CC(CC(C3)C1)C2 and report
## Result 28.4 µM

## Task // repeat for COc1ccc(N=NC(=O)NC(CC(C)C)C(N)=O)cc1 (stereo unspecified) and report
## Result > 100 µM

## Task // repeat for OC(COC(c1ccccc1)(c1ccccc1)c1ccccc1)C(O)CC1SCCS1 (stereo unspecified) and report
## Result 34.3 µM

## Task // repeat for NC(CCOCCP(=O)(O)O)C(=O)O (stereo unspecified) and report
## Result > 100 µM

====

# System: CAKI-1 renal
# protocol: NCI tumour cell line growth inhibition, 48 h
Label rule, in plain words: TGI of 50 µM and up is 1.0, under 50 µM is 0.0.

## Task Is reported TGI greater than or equal to 50 µM here: O=S(=O)(O)c1cc(O)c(N=Nc2ccc(O)cc2O)c2ccccc12
## Result 1.0

## Task // repeat for CN(C)C(=N/O)/C(=N\O)N(C)C and report
## Result 1.0

## Task // repeat for CNC(=O)c1c(NC(=O)c2ccc(C(C)(C)C)cc2)sc2c1CCC(=O)C2 and report
## Result 0.0

## Task // repeat for S=c1[nH]n2c(CCCCCCCCc3nnc4sc(=S)[nH]n34)nnc2s1 and report
## Result 1.0

## Task // repeat for COc1ncc(Nc2ncc([C@@H](C)N3CCN(S(C)(=O)=O)CC3)cc2-c2nc(C)nc(N)n2)cc1F and report
## Result 1.0

## Task // repeat for CCOC(=O)C(=O)CC1=Nc2ccccc2SC(c2cccc(C)c2)C1 (stereo unspecified) and report
## Result 1.0

## Task // repeat for CC(=O)Oc1c(N2CCCCC2)c(C(=O)c2ccccc2)c(O)c2ccn(N(C)C)c12 and report
## Result 0.0

## Task // repeat for c1ccc(C2OC3(CCC[C@H]4C[C@H]43)O[C@H]2c2ccccc2)cc1 (stereo partly specified) and report
## Result 1.0

## Task // repeat for COC(=O)c1c(C#N)c(N)nc2c1CCC2 and report
## Result 1.0

## Task // repeat for COC(=O)c1ccc(CN2C(=O)C(Cl)=C(Nc3cccc(Cl)c3C)C2=O)cc1 and report
## Result 1.0

## Task // repeat for Cc1csc2[n+]1-c1ccccc1N(C(=O)Nc1ccccc1)C(C)C2 (stereo unspecified) and report
## Result 1.0

Cited source for all entries: PubChem BioAssay (NCI)
